Recorded values, source PubChem BioAssay (NCATS).

List of max response values.
# assay procedure: qHTS Assay for Lipid Storage Modulators (AID 1519)
# reported conditions: Drosophila S3 cells, BODIPY lipid droplet/cell ratio, laser cytometry; measured here: lipid channel max response; cells loaded with oleic acid
Records with an inconclusive call do not appear.
Record the value in %, omitting the unit from your answer.

Recorded max response, per entry:
compound: Nc1nc2c(nc(Br)n2C2CC(O)C(CO)O2)c(=O)[nH]1 (configuration not stated)
value observed: 9.77

compound: C[C@H]1CC[C@]2(OC1)O[C@@H]1C[C@@H]3[C@@H]4CC[C@H]5C[C@@H](O)CC[C@]5(C)[C@@H]4CC(=O)[C@@]3(C)[C@H]1[C@@H]2C
value observed: -7.26

compound: COc1cc(O)c(C(=O)/C=C/c2ccccc2)c(OC)c1
value observed: -7.25

compound: C[C@]12CCC3c4ccc(OC(=O)c5ccccc5)cc4CCC3C1CCC2=O (some centres not stated)
value observed: 28.4

compound: CC(CCC(=O)O)C1CCC2C3C(O)C[C@@H]4CC(O)CC[C@@]4(C)C3CC(O)[C@]12C (some centres not stated)
value observed: 0.136

compound: COc1cc(O)c(C(C)=O)c(OC)c1
value observed: 28.9

Given the compound `c1ccc2c(c1)CCC[C@@H]2C1=NCCN1` , write its reported max response.
6.92

Given the compound C=CC(C1=CC(=O)C(OC)=CC1=O)c1ccc(O)cc1 (configuration not stated) , write its reported max response.
16.7

Given the compound `C#C[C@]1(O)CC[C@@H]2[C@H]3CCC4=CCCC[C@@H]4[C@@H]3CC[C@@]21C` , write its reported max response.
-10.1

Given the compound CC(=O)O[C@@]1(C(C)=O)CCC2C3C=C(Cl)C4=CC(=O)C5CC5[C@@]4(C)C3CC[C@]21C (some centres not stated) , write its reported max response.
0.864

Given the compound CC(=O)OC1CC2C(C)(C)C(O)CC[C@@]2(C)C2CC[C@@]3(C)C(c4ccoc4)OC(=O)C4O[C@@]43[C@]12C (some centres not stated) , write its reported max response.
-4.24

Given the compound CC1CC[C@@]2(OC1)OC1CC3C4CC[C@@H]5CC(O)CC[C@@]5(C)C4CC[C@]3(C)C1C2C (some centres not stated) , write its reported max response.
17.1
